Target: UniProt:P31213
Sequence (P31213 whole entry): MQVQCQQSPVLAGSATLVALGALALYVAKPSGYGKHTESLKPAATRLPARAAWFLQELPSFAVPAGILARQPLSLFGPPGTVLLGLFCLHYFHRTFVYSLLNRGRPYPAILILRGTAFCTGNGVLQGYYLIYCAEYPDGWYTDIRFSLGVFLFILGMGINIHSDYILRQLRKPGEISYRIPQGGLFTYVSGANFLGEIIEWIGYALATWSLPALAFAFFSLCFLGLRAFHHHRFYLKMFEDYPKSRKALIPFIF
Experiment: Compound was tested for the inhibition of type 2 5-alpha-reductase of human prostates
Format: tissue-based, Prostate gland
Binary call on IC50 with cut-off 90 nM: strictly below means MET, and equality or higher means NOT MET.

Completed entries (count: 4):
CC(C)N(C(=O)[C@H]1CC[C@H]2[C@@H]3CCc4cc(C(=O)O)ccc4[C@H]3CC[C@]12C)C(C)C    MET
CC(C)N(C(=O)COc1c(F)cc(-c2ccc(C(=O)O)cc2)cc1[N+](=O)[O-])C(C)C    MET
CC(C)N(C(=O)[C@H]1CCC2C3CC[C@H]4NC(=O)CC[C@]4(C)C3CC[C@@]21C)C(C)C (stereo partly specified)    MET
CCc1cc(OCC(=O)N(C(C)C)C(C)C)ccc1-c1ccc(C(=O)O)cc1    NOT MET

In the following, a different molecule is considered.
Prompt: Hello, I'm reviewing records and need to know if IC50 of `CCc1cc(-c2ccc(C(=O)O)cc2)ccc1OCC(=O)N(C(C)C)C(C)C` is below 90 nM. Could you check?
Completion: NOT MET

Sourced from ChEMBL document CHEMBL1134121
